Target: T1, monkey GPC3-His protein (monkey)
T1 construct: Bought protein; also called monkey GPC3 protein
Assay: ELISA, monkey GPC3-His coated; antibody 2.67 nM
quantity-measured: OD450 nm
Give the figure only, with no unit attached.

binder	OD450 nm
hAb001H2L1a (antibody, human IgG1, V domains shown, Humanized F2.169.2, H2+L1a) VH: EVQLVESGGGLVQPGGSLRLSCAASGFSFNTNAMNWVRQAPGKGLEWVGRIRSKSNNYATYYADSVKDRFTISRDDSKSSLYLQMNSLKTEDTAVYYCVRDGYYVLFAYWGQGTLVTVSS VL: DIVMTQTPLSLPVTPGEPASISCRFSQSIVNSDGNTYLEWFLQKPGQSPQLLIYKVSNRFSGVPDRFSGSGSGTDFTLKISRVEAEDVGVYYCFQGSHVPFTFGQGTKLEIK	2.25
hAb007LH2L1b (antibody, human IgG1, V domains shown, Humanized F3.81.19, H2+L1b) VH: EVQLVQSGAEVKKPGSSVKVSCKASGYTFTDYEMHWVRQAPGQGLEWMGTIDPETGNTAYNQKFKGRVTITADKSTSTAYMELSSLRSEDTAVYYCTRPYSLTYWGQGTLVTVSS VL: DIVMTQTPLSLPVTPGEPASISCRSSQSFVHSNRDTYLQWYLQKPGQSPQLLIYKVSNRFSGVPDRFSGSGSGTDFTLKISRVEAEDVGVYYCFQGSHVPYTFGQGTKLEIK	2.35

Next binder, please.
OD450 nm lookup needed for hAb003LH2L1b (antibody, human IgG1, V domains shown, Humanized F2.154.1, H2+L1b) VH: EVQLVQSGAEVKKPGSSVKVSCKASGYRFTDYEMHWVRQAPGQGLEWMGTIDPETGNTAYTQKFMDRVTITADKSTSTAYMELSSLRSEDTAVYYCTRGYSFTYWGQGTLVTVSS VL: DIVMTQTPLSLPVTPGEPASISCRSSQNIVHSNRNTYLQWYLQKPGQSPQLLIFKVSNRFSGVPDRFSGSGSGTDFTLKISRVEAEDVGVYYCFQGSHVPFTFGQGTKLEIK , thanks.
2.36

Sourced from patent US20260116991A1
